Source: PubChem BioAssay AID1159580

test: chemical genetic growth profiling, strain panel (AID 1159580);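 also: tested at 20 µM; growth read once vehicle control cultures reached saturation at 30 °C; 1 = growth at the plate median or of vehicle wells; lower values mean less growth of the strain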; conditions: S. cerevisiae deletion strains, growth OD, locus YLR039C, strain RIC1, stronger effect = lower value
Screen size: about 5,500 compounds; about 2,000 (36%) were called active. Roughly 18% stayed inconclusive and do not appear here. Some of the results follow.
Measurement Type: normalized growth
Form rule: numeric answer, no unit written next to it.

Solved cases (4 shown):
1) OC(c1cc(C(F)(F)F)nc2c(C(F)(F)F)cccc12)C1CCCCN1 (configuration not stated)	1.12
2) CCc1cccc2c3c([nH]c12)C(CC)(CC(=O)O)OCC3 (configuration not stated)	0.989
3) COc1c2ccoc2cc2oc(C)cc(=O)c12	0.968
4) COc1cc2c(cc1OC)[C@@]13CCN4CC5=CCOC6CC(=O)N2C1[C@H]6[C@H]5C[C@H]43 (some centres not stated)	1.04

Supply reported normalized growth belonging to this compound: O=C(O)c1cc(=O)c2c(Cl)cc(Cl)cc2[nH]1
1.04

Supply reported normalized growth belonging to this compound: COc1c2occc2c(OC)c2c(=O)cc(C)oc12
1.18

Supply reported normalized growth belonging to this compound: Cc1nn(-c2ccccc2)nc1C(=O)NNC(=S)Nc1ccc(Cl)cc1
0.785

Supply reported normalized growth belonging to this compound: O=C(O)c1cc(=O)c2cccc(O)c2[nH]1
0.968

Supply reported normalized growth belonging to this compound: O=c1cc(C(F)(F)F)[nH]c2cc(Cl)cc(Cl)c12
0.356

Supply reported normalized growth belonging to this compound: O=C(O)[C@H](O)[C@@](O)(Cc1ccc(O)cc1)C(=O)O
1.13

Supply reported normalized growth belonging to this compound: CCCCCCCCCCCCCCCCCCOCC(O)CO (configuration not stated)
1.04

Supply reported normalized growth belonging to this compound: NC(N)=NC(N)=Nc1ccccc1
1.05

* * *

assay: chemical genetic growth profiling, strain panel (AID 1159580);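 also: tested at 20 µM; growth read once vehicle control cultures reached saturation at 30 °C; 1 = growth at the plate median or of vehicle wells; lower values mean less growth of the strain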; conditions: S. cerevisiae deletion strains, growth OD, locus YLR371W, strain rom2, stronger effect = lower value
Out of some 5,500 compounds screened, about 2,000 (36%) were called active. Inconclusive results (about 18%) are left out. The list shows a part of the results.
Measurement Type: normalized growth
Form rule: numeric answer, no unit written next to it.

Solved cases (2 shown):
1. COc1c2c(cc3c1OCO3)C13C=C[C@H](OC)CC1N(C2)CC3O (stereo not given in full)	0.957
2. Cc1onc(-c2ccccc2Cl)c1C(=O)N[C@@H]1C(=O)N2[C@@H]1SC(C)(C)[C@@H]2C(=O)O	1.03

Supply reported normalized growth belonging to this molecule: COC(=O)C[C@H]1C(C)(C)[C@@H](O)[C@@H]2CC3=C4C=C(OC)O[C@@H](c5ccoc5)[C@]4(C)CCC3[C@@]1(C)C2=O (stereo not given in full)
0.983

Supply reported normalized growth belonging to this molecule: CCCCCCCCCCCCCCCCCCOCC(O)CO (stereo not given)
1.02

Supply reported normalized growth belonging to this molecule: CC1(C)S[C@@H]2[C@H](NC(=O)Cc3ccccc3)C(=O)N2[C@H]1C(=O)O
1.02

Supply reported normalized growth belonging to this molecule: COc1cc(NS(=O)(=O)c2ccc(N)cc2)ncn1
0.992

Supply reported normalized growth belonging to this molecule: Cc1onc(-c2ccccc2)c1C(=O)NC1C(=O)N2[C@@H]1SC(C)(C)[C@@H]2C(=O)O (stereo not given in full)
1.01

Supply reported normalized growth belonging to this molecule: Cc1onc(-c2c(Cl)cccc2Cl)c1C(=O)N[C@@H]1C(=O)N2[C@@H]1SC(C)(C)[C@@H]2C(=O)O
0.985

Supply reported normalized growth belonging to this molecule: COc1cc2c(cc1O)CCNC2C (stereo not given)
0.967

Supply reported normalized growth belonging to this molecule: NC(N)=NC(N)=Nc1ccccc1
0.986

* * *

assay: chemical genetic growth profiling, strain panel (AID 1159580);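 also: tested at 20 µM; growth read once vehicle control cultures reached saturation at 30 °C; 1 = growth at the plate median or of vehicle wells; lower values mean less growth of the strain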; details: S. cerevisiae deletion strains, growth OD, locus YGL240W, strain doc1, stronger effect = lower value
Hit rate of the full screen: of about 5,500 compounds, about 2,000 (36%) were called active. Another 18% or so got no clear call; they are omitted. Some of the results follow. *1 amine or outer side, *2 acyl side, *3 side chain or, on linkers, in order; H or OH if unused. Where a SMILES comes first, the peptide text is derived from it. Bridges are numbered along the chain shown (N, C = ends). [ ]: non-standard residue; d: D form. The star is where a group is joined. ξ: configuration not given here. ΔAla(E,3-NHCONH2) = NC(=O)N/C=C(/N)C(=O)O; X2 = NC1=NCCC(C(N[*:1])C(=O)[*:2])N1; ξβ3hOrn = NCCCC(N)CC(=O)*; Dap = NC[CH](N)C(=O)O
Measured normalized growth, listed per entry for reference.

Solved cases (6 shown):
1. CN[C@@H]1[C@@H](O[C@H]2O[C@H](CO)[C@@H](N)[C@H](O)[C@H]2O)O[C@H]2C[C@@H](N)[C@H](O[C@H]3[C@H](O)[C@@H](O)[C@H](N)C[C@@H]3N)O[C@@H]2[C@@H]1O	1.01 (inactive)
2. O=C(OC[C@H]1O[C@H](OC(=O)c2cc(O)c(O)c(OC(=O)c3cc(O)c(O)c(O)c3)c2)[C@H](OC(=O)c2cc(O)c(O)c(OC(=O)c3cc(O)c(O)c(O)c3)c2)[C@@H](OC(=O)c2cc(O)c(O)c(OC(=O)c3cc(O)c(O)c(O)c3)c2)[C@@H]1OC(=O)c1cc(O)c(O)c(OC(=O)c2cc(O)c(O)c(O)c2)c1)c1cc(O)c(O)c(OC(=O)c2cc(O)c(O)c(O)c2)c1	0.979 (inactive)
3. CCCCCCCCCCCCCCCCCCOCC(O)CO (stereo not drawn)	0.966 (inactive)
4. CC(=O)[O][Hg][c]1ccccc1	0.077 (active)
5. CC(=O)OC[C@H]1O[C@@H](Oc2cc(OC(C)=O)c3c(=O)cc(-c4ccc(OC(C)=O)cc4)oc3c2)[C@H](OC(C)=O)[C@@H](OC(C)=O)[C@@H]1OC(C)=O	0.983 (inactive)
6. CN1CCN(CCC=C2c3ccccc3Sc3ccc(S(=O)(=O)N(C)C)cc32)CC1	0.921 (inactive)

Supply reported normalized growth belonging to this compound: CC(=O)Oc1ccccc1C(=O)O
1 (inactive)

Supply reported normalized growth belonging to this compound: NC[C@H]1O[C@H](O[C@H]2[C@H](O)[C@@H](O[C@H]3O[C@H](CO)[C@@H](O)[C@H](N)[C@H]3O)[C@H](N)C[C@@H]2N)[C@H](N)C[C@@H]1O
0.978 (inactive)

Supply reported normalized growth belonging to this compound: CCC1(CC)C(=O)C=CNC1=O
1.02 (inactive)

Supply reported normalized growth belonging to this compound: CO[C@H]1C[C@H](O[C@H]2[C@H](C)[C@@H](OC3O[C@H](C)C[C@H](N(C)C)[C@H]3OC(C)=O)[C@@H](C)C[C@]3(CO3)C(=O)[C@H](C)[C@@H](OC(C)=O)[C@@H](C)[C@@H](C)OC(=O)[C@@H]2C)O[C@@H](C)[C@@H]1OC(C)=O (stereo partly drawn)
1.01 (inactive)

Supply reported normalized growth belonging to this compound: NCCCC(N)CC(=O)NCC1NC(=O)C(CO)NC(=O)C(N)CNC(=O)C(C2CCN=C(N)N2)NC(=O)/C(=C\NC(N)=O)NC1=O (stereo not drawn) (H-[Dap]S[Dap](ξβ3hOrn)[ΔAla(E,3-NHCONH2)][X2]; lactam 1-C; configuration not given here)
1.06 (inactive)

Supply reported normalized growth belonging to this compound: O=c1oc2c(O)c(O)cc3c(=O)oc4c(O)c(O)cc1c4c23
0.923 (inactive)

Supply reported normalized growth belonging to this compound: NC(N)=NC(N)=Nc1ccccc1
0.964 (inactive)

* * *

Measured normalized growth, listed per entry for reference.
assay: chemical genetic growth profiling, strain panel (AID 1159580);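 also: tested at 20 µM; growth read once vehicle control cultures reached saturation at 30 °C; 1 = growth at the plate median or of vehicle wells; lower values mean less growth of the strain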; settings: S. cerevisiae deletion strains, growth OD, locus YDL005C, strain med2, stronger effect = lower value
Among all 5,500 compounds or so, about 2,000 (36%) were called active. Inconclusive results (about 18%) are left out. The list shows a part of the results.

1) C=C(C)[C@H]1Cc2c(ccc3c2O[C@@H]2COc4cc(OC)c(OC)cc4[C@@H]2C3=O)O1	0.99 (inactive)

Supply reported normalized growth belonging to this compound: COc1cc2c(cc1O)CCNC2C (stereo not drawn)
0.978 (inactive)

Supply reported normalized growth belonging to this compound: CNS(=O)(=O)c1ccc(NC(=O)c2ccccc2C(=O)O)cc1
1 (inactive)

Supply reported normalized growth belonging to this compound: COc1cc2cc3c4cc(OC)c(OC)cc4cc[n+]3c(C)c2cc1OC
1.02 (inactive)

Supply reported normalized growth belonging to this compound: COc1cc2c(cc1OC)[C@@H]1C(=O)c3ccc4c(c3O[C@@H]1CO2)CC(C(C)C)O4 (stereo partly drawn)
0.978 (inactive)

Supply reported normalized growth belonging to this compound: CC1=C(O)C(=O)C=C2C1=CC=C1[C@@]2(C)CC[C@@]2(C)[C@@H]3C[C@](C)(C(=O)O)CC[C@]3(C)CC[C@]12C
0.509 (active)

Supply reported normalized growth belonging to this compound: CC1=NN(c2ccccc2)C(=O)C1
0.975 (inactive)

Supply reported normalized growth belonging to this compound: CC[C@H]1OC(=O)[C@H](C)[C@@H](O[C@H]2C[C@@](C)(OC)[C@@H](O)[C@H](C)O2)[C@H](C)[C@@H](O[C@@H]2O[C@H](C)C[C@H](N(C)C)[C@H]2O)[C@](C)(O)C[C@@H](C)[C@@H]2N[C@@H](COCCOC)O[C@H]([C@H]2C)[C@]1(C)O
0.978 (inactive)
